B1: ZNF649 (parent)
chain: LTEHKRIHTGKKPHVCSLCGKAFY

- Variants of: B1
- procedure-details: protein stability index of a GFP-peptide fusion (GPS, HEK-293T) (PSI 1-6); higher = more stable;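 further: lentivirally expressed fusions sorted by FACS into six bins by GFP to DsRed ratio, PSI derived from sequencing read proportions per bin multiplied by bin number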
- particulars: c terminus: a fixed tail appended
Lab note: anything with protein stability index at or over 3 counts as Criterion met; the rest go in Criterion not met.

Take a look at these entries with their results.
mutation-descriptor | label
G20S | Criterion not met
L1Y | Criterion met
L1R | Criterion met
G20A | Criterion met
K21T | Criterion not met

[Q] Please check the record `C19L` and state if its protein stability index is at or above 3.
[A] Criterion not met

[Q] Is the recorded value of protein stability index equal to or greater than 3 for this variant? `E3T`
[A] Criterion not met

[Q] Determine whether this variant has protein stability index no lower than 3: `K11E`
[A] Criterion met

[Q] Evaluate `E3S` : protein stability index at minimum 3?
[A] Criterion not met

[Q] Quick check: does `T2K` have protein stability index greater than or equal to 3?
[A] Criterion not met

[Q] Threshold query (protein stability index >= 3) on `S17A`
[A] Criterion not met

[Q] Test whether the variant `R6E` records protein stability index of 3 or higher.
[A] Criterion met

[Q] Dear colleague, could you confirm whether `C16I` has protein stability index at or above 3?
[A] Criterion not met

[Q] Item `V15Q` with protein stability index of 3 or above?
[A] Criterion not met

[Q] Check the entry `K5S` : does protein stability index equal or exceed 3?
[A] Criterion not met

[Q] Item `T2C` with protein stability index of 3 or above?
[A] Criterion met

[Q] Could you verify whether the entry `H14C` shows protein stability index of no less than 3?
[A] Criterion not met

[Q] Say whether `S17L` shows protein stability index of 3 or more.
[A] Criterion not met

[Q] I'd appreciate it if you could say whether `A22K` has protein stability index at least equal to 3.
[A] Criterion met

[Q] Record `C16Y` ; criterion: protein stability index no lower than 3. Met?
[A] Criterion not met
